In this section we review reported MIC values for a set of compounds.
Test system: Streptococcus Group D 2041
Assay: MIC, standard agar-dilution assay (Table III)
Format: cell-based
Details: GROUPD2041
Experimental: The MIC's s in Table III were determined by standard agar-dilution assays. The MIC's in Table IV were obtained using a conventional broth-dilution microtiter test.
The figure you give is taken to be in µg/mL; do not add the unit.

# compound, endpoint_label, display_unit, quantitative_readout
measured = [
    ("CCC1OC(=O)CC(O)C(C)C(OC2OC(C)C(O)C(N(C)C)C2O)C(CC=O)CC(C)C(=O)C=CC(C)=CC1CN1CCC2CCCCC2C1 (centres unmarked)", "MIC", "µg/mL", 0.5),
    ("CCC1OC(=O)CC(O)C(C)C(OC2OC(C)C(O)C(N(C)C)C2O)C(CC=O)CC(C)C(=O)C=CC(C)=CC1CNC12CC3CC(CC(C3)C1)C2 (centres unmarked)", "MIC", "µg/mL", 0.5),
    ("CCC1OC(=O)CC(O)C(C)C(OC2OC(C)C(O)C(N(C)C)C2O)C(CC=O)CC(C)C(=O)C=CC(C)=CC1CN1CCC2(CCCCC2)CC1 (centres unmarked)", "MIC", "µg/mL", 0.5),
    ("CCC1OC(=O)CC(O)C(C)C(OC2OC(C)C(O)C(N(C)C)C2O)C(CC=O)CC(C)C(=O)C=CC(C)=CC1CN1CCC2CCCCC21 (centres unmarked)", "MIC", "µg/mL", 0.25),
]

// below: MIC requested for another compound
Write down MIC measured for item CCC1OC(=O)CC(O)C(C)C(OC2OC(C)C(O)C(N(C)C)C2O)C(CC=O)CC(C)C(=O)C=CC(C)=CC1CN1CCCC2CCCCC21 (centres unmarked) [Compound 20, 23-deoxy-23-(decahydroquinolin-1-yl)-OMT]
0.25

====

Test system: Staphylococcus epidermidis EPI1
Experiment: MIC, standard agar-dilution assay (Table III)
Assay type: cell-based
Details: Staphylococcus epidermidis, EPI1
endpoint_label: MIC (µg/mL)
Expressed in µg/mL, but write only the number.

Provide MIC, tested on Staphylococcus epidermidis EPI1, for CCC1OC(=O)CC(O)C(C)C(OC2OC(C)C(O)C(N(C)C)C2O)C(CC=O)CC(C)C(=O)C=CC(C)=CC1CN1CCC2(CCCCC2)CC1 (centres unmarked) .
0.5

State the measured MIC (Staphylococcus epidermidis EPI1) of CCC1OC(=O)CC(O)C(C)C(OC2OC(C)C(O)C(N(C)C)C2O)C(CC=O)CC(C)C(=O)C=CC(C)=CC1CN1CCCC12CCCCC2 (centres unmarked)
0.5

Tell me its MIC on Staphylococcus epidermidis EPI1: CCC1OC(=O)CC(O)C(C)C(OC2OC(C)C(O)C(N(C)C)C2O)C(CC=O)CC(C)C(=O)C=CC(C)=CC1CN1CCC2CCCCC21 (centres unmarked)
0.25

Identify measured MIC obtained with Staphylococcus epidermidis EPI1 for CCC1OC(=O)CC(O)C(C)C(OC2OC(C)C(O)C(N(C)C)C2O)C(CC=O)CC(C)C(=O)C=CC(C)=CC1CN1CC2CCC(CC2)C1 (centres unmarked) [Compound 17, 23-(3-azabicyclo[3.2.2]nonan-3-yl)-OMT] .
0.5

# return MIC of CCC1OC(=O)CC(O)C(C)C(OC2OC(C)C(O)C(N(C)C)C2O)C(CC=O)CC(C)C(=O)C=CC(C)=CC1CN1CC2(C)CC1CC(C)(C)C2 (centres unmarked) (system: Staphylococcus epidermidis EPI1)
0.5
